Biological target: 20S proteasome (CT-like peptidase, β5 subunit) (Homo sapiens)
Construct: purified 20S proteasome; with 20S proteasome
Sequence (P28074 60-263): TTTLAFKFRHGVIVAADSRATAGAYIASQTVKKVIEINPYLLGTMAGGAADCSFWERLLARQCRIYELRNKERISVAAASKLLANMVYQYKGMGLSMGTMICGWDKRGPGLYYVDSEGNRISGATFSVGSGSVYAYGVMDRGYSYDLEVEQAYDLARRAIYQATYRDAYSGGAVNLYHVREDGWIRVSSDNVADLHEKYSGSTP
Assay: fluorogenic CT-like peptidase assay with purified […] proteasome
parameter: IC50

smiles-data	parameter	reading
[O-][n+]1ccccc1[S][Cu][S]c1cccc[n+]1[O-]	IC50	~6 µM
